B1: DVL3 (parent)
chain: HPDPAPFCADNPSELPPPMERTGG

Variants of: B1
Experiment: protein stability index of a GFP-peptide fusion (GPS, HEK-293T) (PSI 1-6); higher = more stable;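 further: lentivirally expressed fusions sorted by FACS into six bins by GFP to DsRed ratio, PSI derived from sequencing read proportions per bin multiplied by bin number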
Conditions: c terminus: a fixed tail appended

Variant Spec: P12Q
protein stability index: 2.86

Variant Spec: P6I
protein stability index: 3

Variant Spec: A5M
protein stability index: 1.82

Variant Spec: P17N
protein stability index: 2.65

Variant Spec: A5K
protein stability index: 2.7

Variant Spec: P16W
protein stability index: 2.17

Variant Spec: P17K
protein stability index: 2.92

Variant Spec: P2R
protein stability index: 4.33

Variant Spec: P2D
protein stability index: 5.12
